- Test system: SK-MEL-28
- experimentNotes: Cytotoxicity against human SK-MEL-28 cells assessed as reduction in cell viability by MTT assay
- Format: functional, cell-based
reportedProperty: IC50 (µM)
One number for each entry, in µM.

Log: SK-MEL-28, molecule CNC(=O)c1cc(Oc2ccc(NC(=O)Nc3ccc(Cl)c(C(F)(F)F)c3)cc2)ccn1 , IC50 = 9.49

====

- experimentNotes: Dark toxicity in human SK-MEL-28 cells assessed as reduction in cell viability by MTT assay
- Format: cell-based
reportedProperty: IC50

The compound CCN(CC)c1ccc2nc3c4ccccc4/c(=N\CCCCCCNC(=O)c4cc(Oc5ccc(NC(=O)Nc6ccc(Cl)c(C(F)(F)F)c6)cc5)ccn4)cc-3sc2c1 showed IC50 equal to > 10 µM
